Origin of the recorded values: patent US20240270821A1

Biological target: hGLP-1R (Homo sapiens, UniProt P43220)
Sequence (P43220 24-463): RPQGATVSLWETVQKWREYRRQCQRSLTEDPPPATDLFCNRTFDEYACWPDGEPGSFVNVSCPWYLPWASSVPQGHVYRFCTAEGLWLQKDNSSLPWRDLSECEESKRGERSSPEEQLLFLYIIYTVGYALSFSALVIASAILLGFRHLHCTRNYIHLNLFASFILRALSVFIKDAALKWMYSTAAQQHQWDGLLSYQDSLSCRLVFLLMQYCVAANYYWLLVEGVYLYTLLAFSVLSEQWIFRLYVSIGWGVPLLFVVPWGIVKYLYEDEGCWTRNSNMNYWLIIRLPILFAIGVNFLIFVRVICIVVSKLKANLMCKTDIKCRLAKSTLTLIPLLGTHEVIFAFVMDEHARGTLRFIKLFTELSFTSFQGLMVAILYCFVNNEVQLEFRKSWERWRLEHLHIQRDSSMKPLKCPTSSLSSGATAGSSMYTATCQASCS
Assay: Functional cAMP activity in the presence of 1% HSA
Type: cell-based
Details: read-out: cAMP Rel EC50, hGLP-1R
Starred links: 1 amine or outer side, 2 acyl side, 3 side chain; linkers in the order of their positions; H or OH if unused. Non-standard residues stand in square brackets, D forms with d. Groups on a side chain read outwards from the residue. No end group written: not given here. *: point of attachment. C20 diacid = O=C(O)CCCCCCCCCCCCCCCCCCC(=O)*; C18 diacid = O=C(O)CCCCCCCCCCCCCCCCC(=O)*; αMePhe(2-F) = C[C@](N)(Cc1ccccc1F)C(=O)O; γGlu = O=C(O)[C@H](CCC(=O)[*:2])N[*:1]; NMeY = CN[C@@H](Cc1ccc(O)cc1)C(=O)O; αMe4Pal = C[C@](N)(Cc1ccncc1)C(=O)O; αMeY = C[C@](N)(Cc1ccc(O)cc1)C(=O)O; 4Pal = N[C@@H](Cc1ccncc1)C(=O)O; αMeL = CC(C)C[C@](C)(N)C(=O)O; αMeS = C[C@](N)(CO)C(=O)O; Orn = NCCC[C@H](N)C(=O)O; AEEA = NCCOCCOCC(=O)O; Aib = CC(C)(N)C(=O)O
PARAMETER_MEASURED: log10 of EC50 (log10 of the value in nM)
Heads up: the numbers are on a log10 scale; they represent EC50 in nM.

[[record]]
substance = "H-Y[Aib]QGTFTSDYSI[αMeL]LD[Orn]QAAK([AEEA-AEEA-γGlu-C20 diacid])QFVEWLLA[Aib]GPSSGEPPPSEG-NH2 [Example 328]"
obs_value = 2.66

[[record]]
substance = "Y[Aib]QGT[αMePhe(2-F)]TSD[4Pal][αMeS]I[αMeL]LD[Orn]K([AEEA-γGlu-C18 diacid])AQ[αMe4Pal]EFI[dE][αMeY]LIEGGPPS[Aib]EPPP[Orn]GE-NH2 [Example 1193]"
obs_value = 1.82

[[record]]
substance = "[NMeY][Aib]QGTFTSD[4Pal][αMeS]I[αMeL]LD[Orn]K([dE-γGlu-C18 diacid])AQ[αMe4Pal]QFIQ[αMeY]LIE[Aib]GPSSGAPPPSGGGE-NH2 [Example 1135]"
obs_value = 1.80

[[record]]
substance = "H-Y[Aib]QGTFTSDFS[Orn][αMeL]LDKK([AEEA-γGlu-C18 diacid])AQ[Aib]AFIEWLLEGGTSSGAPPPSGE-NH2 [Example 175]"
obs_value = 2.59

[[record]]
substance = "H-Y[Aib]QGT[αMePhe(2-F)]TSD[4Pal][αMeS]I[αMeL]LD[Orn]K([AEEA-γGlu-C18 diacid])AQ[αMe4Pal]EFI[dE][αMeY]LVEGGPSSGEPPPGGE-NH2 [Example 1155]"
obs_value = 1.65

[[record]]
substance = "H-Y[Aib]QGT[αMePhe(2-F)]TSD[4Pal][αMeS]I[αMeL]LD[Orn]K([γGlu-γGlu-C18 diacid])AQ[αMe4Pal]EFI[dE][αMeY]LIEGGPSSGEPPPSGSE-NH2 [Example 716]"
obs_value = 1.38

[[record]]
substance = "H-Y[Aib]QGT[αMePhe(2-F)]TSD[4Pal][αMeS]I[αMeL]LD[Orn]K([γGlu-γGlu-C18 diacid])AQ[αMe4Pal]EFI[dE][αMeY]LVEGGPSSGAPPPSGS-NH2 [Example 696]"
obs_value = 1.28

[[record]]
substance = "H-Y[Aib]QGTFTSDFS[Orn][αMeL]LDKK([AEEA-γGlu-C18 diacid])AQ[Aib]AFIEYLLEGGPSSGAPPPGGT-NH2 [Example 158]"
obs_value = 2.26


Given item Y[Aib]QGTFTSD[4Pal]SR[αMeL]LDKK([AEEA-γGlu-C18 diacid])AQ[αMe4Pal]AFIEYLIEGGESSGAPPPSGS-NH2 [Example 792] , the value recorded as its log10 of EC50 is 2.79

Note to self: log10 of EC50 recorded for H-Y[Aib]QGT[αMePhe(2-F)]TSD[4Pal][αMeS]I[αMeL]LD[Orn]K([AEEA-γGlu-C18 diacid])AQ[αMe4Pal]EFI[dE][αMeY]LIEGGPPS[Aib][Orn]PPP[Orn]GGGE-NH2 [Example 1197] was 1.66

Input H-Y[Aib]QGTFTSD[4Pal]SQ[αMeL]LDKK([AEEA-γGlu-C18 diacid])AQ[Aib]AFIE[αMeY]LLEGGPSSGAPPPSGS-NH2 [Example 910] . Output log10 of EC50: 2.38
